I'd be grateful if you could share measured melting point for these entries.

The cases that follow already have their melting point on record.
# given smiles, measured
measured = [
    ("Cc1ccc(/C(=N\\O)N2CCN(c3ccc(S(N)(=O)=O)cc3)CC2)cc1", "263 to 264 °C"),
    ("NS(=O)(=O)c1ccc(N2CCN(C(=NO)c3ccc(Cl)cc3)CC2)cc1", "321 °C"),
    ("NS(=O)(=O)c1ccc(N2CCN(/C(=N/O)c3ccc([N+](=O)[O-])cc3)CC2)cc1", "302 to 303 °C"),
]

# evaluate next
What measured melting point goes with `COc1ccc(/C(=N\O)N2CCN(c3ccc(S(N)(=O)=O)cc3)CC2)cc1` ?
310 to 311 °C

###

molecular target: hCA IX (Homo sapiens, UniProt Q16790); test: Stopped-flow CO2 hydrase assay, hCA IX inhibition
reported property: Ki (nM)
Answers are plain numbers, in nM.

Dear colleague, I am looking for the recorded Ki of the following molecule: NS(=O)(=O)c1ccc(N2CCN(C(=NO)c3ccc(Cl)cc3)CC2)cc1 [Compound 30]
43

###

Could you please report measured melting point for the items listed next?

In the examples that follow, each entry is paired with its recorded melting point.
# compound, measured
rows = [
    ("NS(=O)(=O)c1ccc(N2CCN(/C(=N/O)c3ccc(O)cc3)CC2)cc1 [Compound 28]", "320 to 321 °C"),
    ("NS(=O)(=O)c1ccc(N2CCN(/C(=N/O)c3ccc(F)cc3)CC2)cc1 [Compound 33]", "263 °C"),
]

Sample NS(=O)(=O)c1ccc(N2CCN(/C(=N/O)c3ccncc3)CC2)cc1 [Compound 27] — what was its melting point?
310 to 311 °C
